# Test system: cancer cell lines
# Test Protocol: Multiplexed cytotoxicity assay: cell proliferation (relative cell count IC50, GI50)
# Type: cell-based
# Applied Conditions: Homo sapiens, CAKI-1, CAKI1 (Kidney)
Endpoint: IC50 (µM)
The response must be a number in µM with no trailing unit.

Record request: IC50 value, item C[C@]1(C(N)=O)CC[C@@H](n2c(Nc3c(Cl)cc(Cl)cc3Cl)nc3cnc(N[C@@H]4CCOC[C@H]4F)nc32)CC1 [Compound 1]
0.151

###

# Tested on: 64 cancer cell lines
# Test Protocol: Anti-proliferative activity across a panel of 64 cancer cell lines (CellTiter-Glo)
# Type: cell-based
# Applied Conditions: Homo sapiens, LOX IMVI, 72 h, LOX-IMVI (Melanoma)
Endpoint: pIC50
Quick note: pIC50 means taking -log10 of the concentration in moles per liter.

API: value(readout=pIC50, system=64 cancer cell lines) for record `C[C@]1(C(N)=O)CC[C@@H](n2c(Nc3c(Cl)cc(Cl)cc3Cl)nc3cnc(N[C@@H]4CCOC[C@H]4F)nc32)CC1`
7.60

###

# Tested on: cancer cell lines
# Test Protocol: Multiplexed cytotoxicity assay: cell proliferation (relative cell count IC50, GI50)
# Format: cell-based
# Applied Conditions: Homo sapiens, SK-UT-1, 72 h, SKUT1, Soft Tissue, Sarcoma; 72 h
Endpoint: IC50

Find the recorded IC50 belonging to `C[C@]1(C(N)=O)CC[C@@H](n2c(Nc3c(Cl)cc(Cl)cc3Cl)nc3cnc(N[C@@H]4CCOC[C@H]4F)nc32)CC1` and report it.
> 10 µM

###

# Test system: cancer cell lines
# Test Protocol: Multiplexed cytotoxicity assay: cell proliferation (relative cell count IC50, GI50)
# Format: cell-based
# Applied Conditions: Homo sapiens, HCT-15, HCT15 (Colon)
Endpoint: IC50 (nM)
Only the number, expressed in nM, is required.

Look up IC50 for this compound: `C[C@]1(C(N)=O)CC[C@@H](n2c(Nc3c(Cl)cc(Cl)cc3Cl)nc3cnc(N[C@@H]4CCOC[C@H]4F)nc32)CC1`
2230

Where do the numbers come from? From patent US10513519B2.
